From: paper PMC5073322

IC50 values, listed per item
Tested on: HCT116
Measurement Protocol: MTT antiproliferative assay, HCT116
Condition Details: Homo sapiens, HCT-116, 72 h, read-out: IC50 HCT116
Number plus unit, in that order.

molecule="CC(C)=CCC12OC(C)(C)C3CC(C=C4C(=O)c5c(OC(=O)N(CCO)CCO)cccc5OC431)C2=O (stereo not drawn)" parameter=IC50 result="4.14 µM"

Inquiry: Recorded IC50 for CC(C)=CCC12OC(C)(C)C3CC(C=C4C(=O)c5c(OC(=O)N6CC=CC6)cccc5OC431)C2=O (stereo not drawn) with HCT116, please?
Reply text: 3.15 µM

Inquiry: Recorded IC50 for CC(C)=CCC12OC(C)(C)C3CC(C=C4C(=O)c5c(OC(=O)N6CCSC6)cccc5OC431)C2=O (stereo not drawn) with HCT116, please?
Reply text: 1.08 µM

====

solubility values, listed per item
Measurement Protocol: Water solubility by HPLC
Format: physicochemical
Condition Details: thermodynamic from solid; deionized water, stirred overnight, HPLC 290 nm; read-out: S, water solubility
Numeric answer only, unit µM assumed.

Worked cases, solubility given:
compound="CC(C)=CCC12OC(C)(C)C3CC(C=C4C(=O)c5c(cccc5OS(C)(=O)=O)OC431)C2=O (stereo not shown)" parameter=solubility recorded_number=20
compound="CC(C)=CCC12OC(C)(C)C3CC(C=C4C(=O)c5c(OC(=O)N6CCCC6)cccc5OC431)C2=O (stereo not shown)" parameter=solubility recorded_number=40
compound="CC(C)=CCC12OC(C)(C)C3CC(C=C4C(=O)c5c(OC(=O)N(CCO)CCO)cccc5OC431)C2=O (stereo not shown)" parameter=solubility recorded_number=60
compound="CC(=O)Oc1cccc2c1C(=O)C1=CC3CC4C(C)(C)OC(CC=C(C)C)(C3=O)C14O2 (stereo not shown)" parameter=solubility recorded_number=20
compound="CCOC(=O)COc1cccc2c1C(=O)C1=CC3CC4C(C)(C)OC(CC=C(C)C)(C3=O)C14O2 (stereo not shown)" parameter=solubility recorded_number=10
compound="COc1cccc2c1C(=O)C1=CC3CC4C(C)(C)OC(CC=C(C)C)(C3=O)C14O2 (stereo not shown)" parameter=solubility recorded_number=10

As a next step, examine the compound that follows.
Inquiry: If you can, please state the reported solubility value of CC(C)=CCC12OC(C)(C)C3CC(C=C4C(=O)c5c(OC(=O)N6CCSC6)cccc5OC431)C2=O (stereo not shown) .
Reply text: 20

====

Tested on: HepG2
Measurement Protocol: MTT antiproliferative assay, HepG2
Condition Details: read-out: IC50 HepG2; MTT, 72 h
Parameter: IC50 (nM)
Numeric answer only, unit nM assumed.

Worked cases, IC50 given:
compound="CC(C)=CCC12OC(C)(C)C3CC(C=C4C(=O)c5c(OC(=O)N6CCN(C)CC6)cccc5OC431)C2=O (stereo not shown) [Compound 8o]" recorded_number=2800
compound="CC(C)=CCC12OC(C)(C)C3CC(C=C4C(=O)c5c(OC(=O)N6CCN(C)CC6)cccc5OC431)C2=O (stereo not shown) [Compound 8m]" recorded_number=1360
compound="CC(C)=CCC12OC(C)(C)C3CC(C=C4C(=O)c5c(OC(=O)N6CCC(N7CCCCC7)CC6)cccc5OC431)C2=O (stereo not shown) [Compound 8l]" recorded_number=340

As a next step, examine the compound that follows.
Inquiry: If you can, please state the reported IC50 value of CC(C)=CCC12OC(C)(C)C3CC(C=C4C(=O)c5c(OC(=O)N6CCC(N7CCCCC7)CC6)cccc5OC431)C2=O (stereo not shown) [Compound 8n] .
Reply text: 1320
